The following molecules are listed with their measured Emax values.
# System: MDCK
# METHOD: Inhibition of ASM in dog MDCK cells co-expressing recombinant full length mGFP-tagged KRAS G12V mutant and mCherry-CAAX assessed as reduction in plasma membrane localization of KRAS mutant incubated for 48 hrs by confocal microscopic analysis relative to control
# Assay type: cell membranes
# SETTINGS: Canis lupus familiaris
# output: bare number, no unit

CHEM SMILES: COc1cccc([C@@H](C)N(CC=C(c2ccccc2)c2ccccc2)CCN2CCN(C)CC2)c1
ASSAY SYSTEM: MDCK
Emax: 0.75

Recall the recorded Emax for COc1ccc([C@@H](C)N(CC=C(c2ccccc2)c2ccccc2)CCN2CCC2)cc1 with MDCK and state it.
0.69

Recall the recorded Emax for COc1ccc([C@@H](C)N(CC=C(c2ccccc2)c2ccccc2)CC(=O)N2CCN(C)CC2)cc1 with MDCK and state it.
0.73

Recall the recorded Emax for CCN(CC=C(c1ccccc1)c1ccccc1)[C@H](C)c1ccc(OC)cc1 with MDCK and state it.
0.84

Recall the recorded Emax for COc1ccccc1[C@@H](C)N(CC=C(c1ccccc1)c1ccccc1)CCN1CCN(C)CC1 with MDCK and state it.
0.86

Recall the recorded Emax for COc1ccc([C@@H](C)N(CC=C(c2ccccc2)c2ccccc2)CC=C(c2ccccc2)c2ccccc2)cc1 with MDCK and state it.
0.74

Recall the recorded Emax for COc1ccc([C@@H](C)N(CC=C(c2ccccc2)c2ccccc2)CCF)cc1 with MDCK and state it.
0.52

Recall the recorded Emax for COc1ccc([C@H](C)N(CC=C(c2ccccc2)c2ccccc2)CCN2CCN(C)CC2)cc1 with MDCK and state it.
0.83

Recall the recorded Emax for COc1ccc([C@@H](C)N(C/C=C/c2ccccc2)CCN2CCN(C)CC2)cc1 with MDCK and state it.
0.84

Recall the recorded Emax for COc1ccc([C@@H](C)N(CC=C(c2ccccc2)c2ccccc2)CCN2CCNC(=O)C2)cc1 with MDCK and state it.
0.81

###

# Test system: MDCK
# METHOD: Cytotoxicity against dog MDCK cells at 30 uM
# Format: functional, cell-based
# SETTINGS: Canis lupus familiaris
Calls of active or inactive are those of the source. No cut-off for these calls is given here.
MEASURED ATTRIBUTE: Activity

Please review the entries below; each comes with its answer.
CHEM SMILES: COc1ccc([C@@H](C)N(CC=C(c2ccccc2)c2ccccc2)CCN2CCOCC2)cc1
Activity: inactive
//
CHEM SMILES: COc1ccc([C@@H](C)N(CC=C(c2ccccc2)c2ccccc2)CCN2CCC2)cc1
Activity: Active
//
CHEM SMILES: C=CCN(CCN1CCN(C)CC1)[C@H](C)c1ccc(OC)cc1
Activity: inactive
//
CHEM SMILES: COc1ccc([C@@H](C)N(CC=C(c2ccccc2)c2ccccc2)CCN2CCNC(=O)C2)cc1
Activity: inactive
//
CHEM SMILES: COc1ccc([C@@H](C)N(CC=C(c2ccccc2)c2ccccc2)CC=C(c2ccccc2)c2ccccc2)cc1
Activity: inactive

Need Activity of COc1ccc([C@@H](C)N(C)CC=C(c2ccccc2)c2ccccc2)cc1 , thanks.
inactive

Need Activity of COc1cccc([C@@H](C)N(CC=C(c2ccccc2)c2ccccc2)CCN2CCN(C)CC2)c1 , thanks.
Active

Need Activity of COc1ccc([C@H](C)N(CC=C(c2ccccc2)c2ccccc2)CCN2CCN(C)CC2)cc1 , thanks.
Active

Need Activity of COc1ccc([C@@H](C)N(CC=C(c2ccccc2)c2ccccc2)C(=O)CN2CCN(C)CC2)cc1 , thanks.
Active

Need Activity of COc1ccc([C@@H](C)N(C/C=C/c2ccccc2)CCN2CCN(C)CC2)cc1 , thanks.
inactive
